Test system: HT-29
Experimental Details: NCI tumour cell line growth inhibition, 48 h
The source made the active and inactive calls. Rule as the data show it: active = GI50 up to about 1.1 µM and inactive = higher.
Outcomes: active, inactive

1) O=Cc1c(-c2ccccc2)nc2ccccc2c1O: inactive
2) [N-]=[N+]=NC1(c2ccccc2)C(=O)C(Cl)=C(c2ccccc2)N(c2ccccc2)C1=O (configuration not stated): inactive
3) COc1cc(C2=N/C(=C/c3cccs3)C(=O)O2)cc(OC)c1OC: inactive
4) COc1cc2c(cc1OC)-c1c3cc(O)ccc3nn[n+]1CC2: inactive
5) CCN(C(=O)N[C@@H](Cc1ccccc1)C(=O)N[C@@H](CC(C)C)C(=O)OC)c1ccccc1: inactive
6) O=C1CN2Cc3cc(N4CCOCC4)ccc3N=C2N1: inactive
7) CCOC(=O)c1cc(C2(O)CCN(CC(C)CC)C2=O)c(-c2cc(C)no2)[nH]1 (configuration not stated): inactive
8) CC1(C)OCC(C(O)C2OC(C)(C)OC2/C=N\O)O1 (configuration not stated): inactive
9) CC(C)(C)OC(=O)N1N=NC2C1C1CC(OCc3ccccc3)(OCc3ccccc3)C2O1 (configuration not stated): inactive
10) c1ccc(C2=Nc3nc4ccccc4n3C(c3ccccc3)C2)cc1 (configuration not stated): inactive
11) N[C@H](C(=O)O)[C@H](Cl)CC(=O)O: inactive
12) OCC1=CC(NC2CC(CO)C(O)C(O)C2O)C(O)C(O)C1O (configuration not stated): inactive
13) COc1c2cc(C(C)(C)C)cc1Cc1cccc(c1O)Cc1cc(C(C)(C)C)cc(c1OC)Cc1cccc(c1O)Cc1cc(C(C)(C)C)cc(c1OC)Cc1cccc(c1O)C2: inactive
14) CC1Cc2cc(O)ccc2C2[C@@H]1C1CC[C@H](O)[C@@]1(C)C[C@@H]2O[N+](=O)[O-] (some centres not stated): inactive
15) CCOC(=O)CC1C(C(=O)OCC)=Cn2c([nH]c3cccc4cccc2c43)=C1C(=O)OCC (configuration not stated): inactive
16) FC(F)(F)C1(Cl)C(c2ccccc2)=C1c1ccccc1: inactive
17) COc1cc(O)c2c(O)c3c(c4c2c1[C@]1(C4)C(C)=CCCC1(C)C)[C@H](O)[C@@]1(O)CC(O)=C(C(N)=O)C(=O)[C@@]1(O)C3=O: active
18) O=c1sc2c(s1)SSSSS2: inactive
19) Cc1oc(N)c(S(=O)(=O)/C(C#N)=C/c2ccccc2[N+](=O)[O-])c1C: inactive
20) CCCCC1(O)CC2CC1C(C)C2(C)C (configuration not stated): inactive
21) CC(C)(CN1CCCCC1)C(=O)/C=C/c1ccccc1: inactive
22) Cc1nc2ccc(Cl)cc2c2c1CCN2c1ccc(F)cc1: inactive
23) COc1cc(/C=C/C(=O)CC(=O)/C=C/c2ccc(OC(=O)CCCCC3CCSS3)c(OC)c2)ccc1OC(=O)CCCCC1CCSS1 (configuration not stated): inactive
24) C=C([C@@]1(O)C[C@H]2[C@H](CCC2(OC)OC)[C@@H]2c3ccccc3O[C@@H]21)[Si](C)(C)C: inactive
25) Cc1sc2nc3n(c(=O)c2c1C)N=C(c1ccccc1)CS3: inactive
26) COC(=O)C1C(OCc2ccccc2)C2CCC1(OC)C=C2C (configuration not stated): inactive
27) CC(=O)NC1C(O)C(O)C(CO)OC1n1ncc(=O)[nH]c1=O (configuration not stated): inactive
28) Cc1cc(C)c(S(=O)(=O)N(CCCN)OCCCON(CCCN)S(=O)(=O)c2c(C)cc(C)cc2C)c(C)c1: inactive
29) Oc1cc(N2CCCC2)ccc1/C=N/N1C(=S)N(c2ccccc2)C(=N\c2ccccc2)/C1=N/c1ccccc1: inactive
30) CC(C)c1cccc(C(=O)NCCN(C)C)c1[N+](=O)[O-]: inactive
31) COc1c2ccoc2c(S(=O)(=O)Nc2ccc(Cl)cc2)c2oc(C)cc(=O)c12: inactive
32) CS(=O)(=O)CSCSSCS(C)(=O)=O: inactive
33) CNC(=S)/C(C#N)=C(\N)N1CCCC1: inactive
34) N#C/C(N)=C(C#N)/N=C/Nc1ccccc1N: inactive
35) O=C(O)C(CS)NCc1c2ccccc2[n+]([O-])c2ccccc12 (configuration not stated): inactive
36) Cc1cc(Cc2cc(C)c(N)cc2N)c(N)cc1N: inactive
37) CCN1CCN(c2nc3ccccc3c3c2CCOc2ccccc2-3)CC1: inactive

###

System: UACC-257
Experimental Details: NCI tumour cell line growth inhibition, 48 h
Activity calls are given as the source filed them. Cut-off read from the data, not from the text of the source: active = GI50 up to about 1.1 µM and inactive = higher. Where a SMILES comes first, the peptide text is derived from it. [ ]: non-standard residue; d: D form. The star is where a group is joined. ξ: configuration not given here. ξF = NC(Cc1ccccc1)C(=O)O; Cbz = O=C(OCc1ccccc1)*; Aib = CC(C)(N)C(=O)O; NHNH2 = NN*
Outcomes: yes (1) for active, no (0) for inactive

1. O=C(CNc1ccc(Cl)cc1Cl)Nn1c(-c2ccccc2)nc2ccccc2c1=O: no (0)
2. C[C@]12CCC(=O)C=C1CC[C@@H]1[C@@H]2[C@@H](O)C[C@@]2(C)[C@H]1CC[C@]2(O)C(=O)COC(=O)COCC(=O)O: no (0)
3. Cc1cccc2sc(-c3ccc(O)cc3)nc12: no (0)
4. O=C1C(SCCO)=C(SCCO)C(=O)c2ccccc21: no (0)
5. COc1cc(/C=C/C(=O)OC[C@H](Br)[C@H](OC(C)=O)c2ccc3c(c2)OCO3)cc(OC)c1OC: no (0)
6. COC1=CC(=O)c2c(c(COC(C)=O)cn2C)C1=O: yes (1)
7. O=C1CCC(c2nc3cc(Cl)ccc3o2)C(=O)N1 (stereo not drawn): no (0)
8. O=C(Nc1ccc(I)cc1C(=O)NCCO)c1cccs1: no (0)
9. CC(C)(C)NNC(=O)CCn1[nH]c(=O)c(Cl)c(Cl)c1=O: no (0)
10. NC(=O)c1cccc(C2OC(COP(=O)(O)O)C(O)C2O)c1 (stereo not drawn): no (0)
11. C=CCOC(=O)Cn1cc(C)c(=O)[nH]c1=O: no (0)
12. O=c1c2ccccc2n2nnc3ccc(NCCNCCO)c1c32: no (0)
13. Clc1ccc(COC(Cn2ccnc2)c2ccc(Cl)cc2Cl)cc1 (stereo not drawn) [ECONAZOLE NITRATE]: no (0)
14. CC(C)[Si](OC1=C(C(=O)N(C)c2ccccc2Cl)CCC1)(C(C)C)C(C)C: no (0)
15. Oc1ccc2ccccc2c1C(c1ccc(Cl)cc1)c1c(O)ccc2ccccc12: no (0)
16. COc1cc(-c2cc(O)c3ccccc3n2)cc(OC)c1OC: no (0)
17. Cc1cn(C2CC(N=[N+]=[N-])C(CO)O2)c(=O)n(CCCCBr)c1=O (stereo not drawn): no (0)
18. Cc1cc2c(s1)C(N)CC2=O (stereo not drawn): no (0)
19. COC1=CC(=O)[C@]2(C)[C@H](C1=O)C(C)[C@H]2c1ccccc1 (stereo partly drawn): no (0)
20. O=S(=O)(c1ccc2ccccc2c1)N1CCN(S(=O)(=O)c2ccc3ccccc3c2)CC1: no (0)
21. CCN(CC)CCCNC(=O)c1ccccc1Nc1c(Cl)cccc1Cl: no (0)
22. CC(C)(NC(=O)OCc1ccccc1)C(=O)NC(Cc1ccccc1)C(=O)NN (stereo not drawn) (Cbz-[Aib]-[ξF]-NHNH2): no (0)
23. NC1(CCNC(=O)c2ccccc2)CCN(C(=O)c2ccccc2)CC1: no (0)
24. C[n+]1[n-]o/c(=N\N=O)c1-c1cc(-c2/c(=N/N=O)o[n-][n+]2C)cc(-c2/c(=N\N=O)o[n-][n+]2C)c1: no (0)
25. CCC1(C)NC(c2cnccn2)=NN1c1ccc(Cl)cc1 (stereo not drawn): no (0)
26. O=C(Cc1nc2ncccc2[nH]c1=O)c1c[nH]c2ccccc12: no (0)
27. CCC(=O)OC1=C(c2ccccc2)Sc2ccc(Cl)cc2-n2cccc21: no (0)
28. CCOC(=O)NC1CN2CCC1CC2 (stereo not drawn): no (0)
29. CC1(C)C2CC3C(C)(C2)C31c1cc(Cl)ccc1N (stereo not drawn): no (0)
30. O=C1/C(=C/c2cccc(Cl)c2)CCCc2ccccc21: no (0)
31. CC1=CC(C)(C)N=C2SC(c3ccc(Cl)cc3)=NN12: no (0)
32. COc1ccc2c(-c3ccc(OCCN(C)C)cc3)c(Oc3ccccc3)c(=O)oc2c1: no (0)
33. COc1ccc(N2C(=O)C3ON(Cc4ccc(CC(N)=O)cc4)C(c4c5ccccc5c(C)c5ccccc45)C3C2=O)cc1 (stereo not drawn): no (0)

###

System: HOP-18
Experimental Details: NCI tumour cell line growth inhibition, 48 h
Activity calls are given as the source filed them. Cut-off read from the data, not from the text of the source: active = GI50 up to about 1.1 µM and inactive = higher.
Reported GI50 values for the following compounds.
Quantity: GI50

1) CCCCCCCCCCNC1CC(OC2CC(O)(C(O)CO)Cc3c(O)c4c(c(O)c32)C(=O)c2c(OC)cccc2C4=O)OC(C)C1O (stereo not drawn): 1.87 µM (inactive)
2) COc1ccccc1NC(=O)C1=C(C)NC(C)=C(C(=O)Nc2ccccc2OC)C1c1ccc(C2C(C(=O)Nc3ccccc3OC)=C(C)NC(C)=C2C(=O)Nc2ccccc2OC)cc1: 18 µM (inactive)
3) COC(=O)/C(=C1\OC(=O)C(c2ccc(Cl)cc2)=C1O)c1ccc(Cl)cc1: 21 µM (inactive)
4) CC(=O)OC1(C#N)CC2OC1C1N=NN(C(=O)OC(C)(C)C)C21 (stereo not drawn): > 100 µM (inactive)
5) COc1c2ccoc2c(S(=O)(=O)Nc2ccc(Cl)cc2)c2oc(C)cc(=O)c12: > 54.8 µM (inactive)
6) COc1ccc(C(=O)c2cc(OC)c(OC)c(OC)c2)cc1: > 100 µM (inactive)
7) COc1cc2c(cc1OC)-c1c3cc(O)ccc3nn[n+]1CC2: > 100 µM (inactive)
8) N#Cc1ccccc1Sc1ccccc1N: 27 µM (inactive)
9) O=C(O)C(CS)NCc1c2ccccc2[n+]([O-])c2ccccc12 (stereo not drawn): 97.1 µM (inactive)
10) COc1ccc(-c2cc(-c3ccco3)c(C#N)c(=O)[nH]2)cc1: 15.9 µM (inactive)
11) CCOC(=O)C(=O)Nc1nc2c(OCC)cccc2s1: > 100 µM (inactive)
12) Cc1nc(=O)[nH]c2[nH][nH]c(=O)c12: > 100 µM (inactive)
13) CC(C)(C)N/N=C(\Cc1occc(=O)c1O)C(=O)Nc1ccc([N+](=O)[O-])cc1[N+](=O)[O-]: > 100 µM (inactive)
